Hey, just so you know, these numbers are from ChEMBL document CHEMBL1152851.

tested on: PBL; test: Stimulation of immune response in pretreated […] isolated from Graffi myeloid tumor bearing hamster assessed as number of plaque forming cells after 24 hrs […]; type: cell-based; conditions: cricetinae
measured-parameter: Activity

compound-string	Activity
CCNC(=S)NNC(=O)c1ccc(-c2ccccc2)s1	5200

P: CCNC(=S)NNC(=O)c1cc2c(s1)CCCC2
Q: Nn1c(-c2ccc(-c3ccccc3)s2)n[nH]c1=S
R: CCn1c(-c2cc3c(s2)CCCC3)n[nH]c1=S
In: hey, can you rank those compounds up there by Activity? biggest number first please Present the labels in the sequence the task asks for.
Out: Q, R, P

A: CCNc1nnc(-c2cc3c(s2)CCCC3)s1
B: Nn1c(-c2cc3c(s2)CCCC3)n[nH]c1=S
In: Select one. Lower Activity: A or B Answer by stating the label of the chosen item.
Out: B
(B: 5869, A: 14288)

* * *

assay: Stimulation of immune response in pretreated spleen cells isolated from Graffi myeloid tumor bearing hamster assessed as migration area after 16 hrs by indirect agarose technique; type: cell-based; conditions: cricetinae
measured-parameter: Activity (mm2)

compound-string	quantity-unit	measurement
CCNc1nnc(-c2cc3c(s2)CCCC3)s1	mm2	1788
CCn1c(-c2cc3c(s2)CCCC3)n[nH]c1=S	mm2	1823

A: Nn1c(-c2ccc(-c3ccccc3)s2)n[nH]c1=S
B: Nn1c(-c2cc3c(s2)CCCC3)n[nH]c1=S
C: CCNC(=S)NNC(=O)c1ccc(-c2ccccc2)s1
In: Order the items by recorded Activity; the first position goes to the largest value. Form field (ranking): labels in requested order.
Out: A, B, C

* * *

assay: Stimulation of immune response in pretreated thymocytes isolated from Graffi myeloid tumor bearing hamster assessed as number of plaque forming cells after 24 hrs […]; format: cell-based; settings: cricetinae, thymocyte
measured-parameter: Activity

Please review the following examples before continuing.
compound-string	Activity
CCNc1nnc(-c2cc3c(s2)CCCC3)s1	15300
CCNC(=S)NNC(=O)c1cc2c(s1)CCCC2	2040
CCNC(=S)NNC(=O)c1ccc(-c2ccccc2)s1	7800
Nn1c(-c2cc3c(s2)CCCC3)n[nH]c1=S	7250

P: CCn1c(-c2cc3c(s2)CCCC3)n[nH]c1=S
Q: Nn1c(-c2ccc(-c3ccccc3)s2)n[nH]c1=S
In: When P and Q are compared, which has the higher number for Activity? Bench note: the answer is the label of the chosen record.
Out: Q
(Q: 19200, P: 5287)

* * *

experiment: Stimulation of immune response in pretreated thymocytes isolated from Graffi myeloid tumor bearing hamster assessed as migration area after 16 hrs by indirect agarose technique; assay type: cell-based; conditions: cricetinae, thymocyte
measured-parameter: Activity (mm2)

Here's what some known entries look like.
compound-string	measurement
Nn1c(-c2cc3c(s2)CCCC3)n[nH]c1=S	1024
CCNC(=S)NNC(=O)c1ccc(-c2ccccc2)s1	202
CCNc1nnc(-c2cc3c(s2)CCCC3)s1	1118
CCNC(=S)NNC(=O)c1cc2c(s1)CCCC2	146

I: Nn1c(-c2ccc(-c3ccccc3)s2)n[nH]c1=S
II: CCn1c(-c2cc3c(s2)CCCC3)n[nH]c1=S
In: Would you mind telling me which has the lower recorded Activity between I and II ? Please indicate the selected item by its label.
Out: II

* * *

experiment: Stimulation of immune response in pretreated thymocytes isolated from Graffi myeloid tumor bearing hamster assessed as ratio of migration area of experimental cells to control cells after 16 hrs by indirect agarose technique; format: cell-based; conditions: cricetinae, thymocyte
measured-parameter: Ratio

compound-string	Ratio
CCn1c(-c2cc3c(s2)CCCC3)n[nH]c1=S	0.518
CCNc1nnc(-c2cc3c(s2)CCCC3)s1	0.581
Nn1c(-c2cc3c(s2)CCCC3)n[nH]c1=S	0.532
CCNC(=S)NNC(=O)c1cc2c(s1)CCCC2	0.08

1: CCNC(=S)NNC(=O)c1ccc(-c2ccccc2)s1
2: Nn1c(-c2ccc(-c3ccccc3)s2)n[nH]c1=S
In: Which value of Ratio is smaller, the one for 1 or the one for 2 ? Select an item and report its label.
Out: 1

* * *

assay: Cytotoxicity against thymocytes isolated from solid form of Graffi myeloid tumor bearing hamster pretreated at 0.5 mg/ml, ip for 5 days measured after 24 hrs by trypan blue assay; details: cricetinae, thymocyte
measured-parameter: IC50 (nM)
Write it as a number; the unit nM goes unstated.

Example entries and their recorded answers appear below.
compound-string	IC50 (nM)
CCNC(=S)NNC(=O)c1ccc(-c2ccccc2)s1	3500
CCn1c(-c2cc3c(s2)CCCC3)n[nH]c1=S	460
Nn1c(-c2ccc(-c3ccccc3)s2)n[nH]c1=S	0.001

In: Dear colleague, I am looking for the recorded IC50 of the following compound: CCNc1nnc(-c2cc3c(s2)CCCC3)s1
Out: 0.0052

In: Same lookup for Nn1c(-c2cc3c(s2)CCCC3)n[nH]c1=S , please.
Out: 12
